Assay: Cytotoxicity of 6-OHDA against SH-SY5Y cells, MTT assay
Assay type: cell-based
Conditions: human, SH-SY5Y neuronal cells, 6-OHDA, fourth of five concentrations 25–125 μM, relative to control, read-out: cell viability

COMPOUND	viability at 24 h / %
NCCc1cc(O)c(O)cc1O [6-OHDA, 6-hydroxydopamine]	56.2

====

Tested on: 6-OHDA-induced SH-SY5Y neuronal cells
Assay: Neuroprotection: cell viability of 6-OHDA-induced SH-SY5Y cells, MTT assay
Format: cell-based, Human
Conditions: pretreatment 1 μM 3 h, then 50 μM 6-OHDA 24 h
OBSERVATION TYPE: cell viability of 6-OHDA-induced cells (%)

MOLECULE	TESTED TARGET	OBSERVATION TYPE	TEST RESULT
O=Cc1ccc(OCc2cn(-c3ccc(S(=O)(=O)N4CCc5ccccc5C4)cc3)nn2)cc1 [3b]	6-OHDA-induced SH-SY5Y neuronal cells	cell viability of 6-OHDA-induced cells	89.37
O=[N+]([O-])c1ccc(OCc2cn(-c3ccc(S(=O)(=O)NCCc4ccccc4)cc3)nn2)cc1 [4a]	6-OHDA-induced SH-SY5Y neuronal cells	cell viability of 6-OHDA-induced cells	88.68
Oc1ccc(/C=C/c2cc(O)cc(O)c2)cc1 [Resveratrol, reference compound]	6-OHDA-induced SH-SY5Y neuronal cells	cell viability of 6-OHDA-induced cells	88.04
Cc1ccc(OCc2cn(-c3ccc(S(=O)(=O)NCCc4ccccc4)cc3)nn2)cc1 [2a]	6-OHDA-induced SH-SY5Y neuronal cells	cell viability of 6-OHDA-induced cells	90.11
Cc1ccccc1OCc1cn(-c2ccc(S(=O)(=O)N3CCc4ccccc4C3)cc2)nn1 [4b]	6-OHDA-induced SH-SY5Y neuronal cells	cell viability of 6-OHDA-induced cells	88.69
O=Cc1ccc(OCc2cn(-c3ccc(S(=O)(=O)NCCc4ccccc4)cc3)nn2)cc1 [3a]	6-OHDA-induced SH-SY5Y neuronal cells	cell viability of 6-OHDA-induced cells	85.36
Cc1ccccc1OCc1cn(-c2ccc(S(=O)(=O)NCCc3ccccc3)cc2)nn1 [5a]	6-OHDA-induced SH-SY5Y neuronal cells	cell viability of 6-OHDA-induced cells	91.89

Source of measurements: paper PMC12242667
